// data source = the RNAGym collection of RNA variant scans (doi:10.7554/elife.80360)

B1: Hairpin Ribozyme (parent)
chain: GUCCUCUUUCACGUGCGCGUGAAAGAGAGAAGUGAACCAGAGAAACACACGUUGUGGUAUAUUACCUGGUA

variants of: B1; assay: self-cleavage, relative activity (ratio to wild type); higher = more cleavage; co-transcriptional
readout-type: self-cleavage
Just the number, please.

Report self-cleavage for A22U C50A please.
0.211

Report self-cleavage for G15C G57A please.
0.24

Report self-cleavage for C10U U60A please.
0.67

Report self-cleavage for A26U G68C please.
0.103

Report self-cleavage for A11U G32C please.
0.144

Report self-cleavage for A43U A59U please.
0.204

Report self-cleavage for A11U C48G please.
0.0875

Report self-cleavage for A31C A71U please.
0.1

Report self-cleavage for C48A G57C please.
0.148

Report self-cleavage for C48U U53G please.
0.112

Report self-cleavage for U70C please.
0.924
